measuredTarget: human IL-12 receptor (IL-12Rβ1 and IL-12Rβ2) on HEK-Blue IL-12 cells (human, UniProt P42701 24-662; Q99665 24-862)
Sequence (Q99665 24-862, chain 2 of 2, other chains not shown): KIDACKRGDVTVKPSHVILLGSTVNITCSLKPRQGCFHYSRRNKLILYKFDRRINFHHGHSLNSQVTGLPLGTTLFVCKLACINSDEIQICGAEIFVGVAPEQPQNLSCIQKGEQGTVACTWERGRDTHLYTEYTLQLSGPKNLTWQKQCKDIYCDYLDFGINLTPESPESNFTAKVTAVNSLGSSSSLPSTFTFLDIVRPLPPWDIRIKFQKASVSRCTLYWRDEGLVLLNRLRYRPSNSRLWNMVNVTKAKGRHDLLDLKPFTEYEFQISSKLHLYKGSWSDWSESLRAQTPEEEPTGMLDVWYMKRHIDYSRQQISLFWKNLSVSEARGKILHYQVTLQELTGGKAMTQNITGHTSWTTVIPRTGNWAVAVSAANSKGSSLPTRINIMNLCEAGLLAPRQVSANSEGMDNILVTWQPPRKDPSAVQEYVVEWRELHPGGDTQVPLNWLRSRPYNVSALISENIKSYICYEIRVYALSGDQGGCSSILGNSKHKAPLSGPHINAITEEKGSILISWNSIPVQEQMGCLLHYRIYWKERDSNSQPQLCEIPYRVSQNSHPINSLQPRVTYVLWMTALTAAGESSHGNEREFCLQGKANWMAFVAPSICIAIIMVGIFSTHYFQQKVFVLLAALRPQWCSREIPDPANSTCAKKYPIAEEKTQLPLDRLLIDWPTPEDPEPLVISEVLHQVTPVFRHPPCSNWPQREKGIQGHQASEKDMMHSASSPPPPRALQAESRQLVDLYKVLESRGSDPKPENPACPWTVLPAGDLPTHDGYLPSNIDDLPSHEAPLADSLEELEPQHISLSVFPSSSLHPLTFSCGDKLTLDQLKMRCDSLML
assayMethodText: cell-based or functional assay
Below, each entry is listed alongside its reported EC50.

As a guide, the following entries are already answered.
Give the reported value of EC50 for this record: DGL478 (bispecific antibody, V domains shown) V domain 1: QVQLVESGGGLVQAGGSLRLSCAAPGRYAVGWFRQAPGKEYEFVAAITVSGGSKYYEDSVKGRFAISRDNAKNTVYLQMNSLKAEDTAVYYCAARTPKFGSGWYNRRGEYDYWGQGTQVTVEP V domain 2: QVQLVESGGGLVQAGGSLRLSCAASGRIFSAYRMGWFRQAPGKEREFVAGITWRGQTTYYAASVKGRFTISKDNAKKTVYLQMNSLKPEETAVYYCAVETNGLGRWDRPSEYDYWGQGTQVTVEP
4e-09 M (implied)

Give the reported value of EC50 for this record: DGL487 (bispecific antibody, V domains shown, 67B1 x 190B2) V domain 1: QVQLVESGGGLVQAGGSLRLSCAASARIFNSYAVAWFRQTPGKEREFVASISWSGGSTNYADSVKGRFTISRDNAKNTVFLQMNSLKPADTAVYYCAADRNYYPSVLGKYTYWGQGTQVTVEP V domain 2: QVQLQESGPGLVKPSQTLSLTCTVSGGSITTNYYYWSWIRQPPGKGLEWMGAIAYSGSTYYSPSLKSRTSISRDTSKNQFTLQLSSVTPEDTAVYYCASGINFYSNYPTLNEYDYWGQGTQVTVEP
3.1e-09 M (implied)

Now consider a different binder.
Give the reported value of EC50 for this record: DGL574 (bispecific antibody, V domains shown) V domain 1: QVQLVESGGGLVQAGGSLRLSCAASRSISSFNEMAWYRQAPGEQRELVATIVSTVGFTNYADSVKGRFTISRDNAKNTVYLQMNSLKAEDTAVYYCNARRISTDYWGQGTQVTVEP V domain 2: QVQLVESGGGLVQAGGSLRLSCAASGRTFSRYRMGWFRQAPGKEREFVAAITKSGATTYDADSVKGRFTISRDNAKNTLYLQMNSLKPEDTAVYYCAASYHSNWWPKNADEYAYWGQGTQVTVEP
> 100 nM
